molecular target: T1, Sulfotyrosine D6 biotin peptide (human); experiment: ELISA, 50 nM mAb
T1 construct: also called D6 peptide
T1 peptide: ENSSFY[sY][sY]D[sY]LDEVAFGGK(Biotin)
Non-standard residues stand in square brackets, D forms with d. No end group written: not given here. *: point of attachment. Biotin = O=C1N[C@H]2[C@H](CS[C@H]2CCCCC(=O)*)N1; sY = N[C@@H](Cc1ccc(OS(=O)(=O)O)cc1)C(=O)O
hey, just use MET if measured binding normalized to PSGL-1 is less than 0.3, otherwise NOT MET

See these solved cases before continuing.
# binder, answer label
measured = [
    ("01A04 (antibody, IgG4, V domains shown) VH: EVQLVQSGAEVKKPGASVKVSCKASGYTFTSYYIHWVRQAPGQGLEWMGIIRPSGGSTSYAQKFQGRVTMTRDTSTSTVYMELSSLRSEDTAMYYCARVGVGSFDYWGQGTLVTVSS VL: DIQMTQSPSTLSASVGDRVTITCRASQSVSNWLAWYQQKPGKAPKLLIYKASSLESGVPSRFSGSGSGTEFTLTISSLQPDDFATYYCQWFRTFGPGTKVDIK", "NOT MET"),
    ("20I15 (antibody, V domains shown, From mouse immunisation; only variable domains given; also called 20115) VH: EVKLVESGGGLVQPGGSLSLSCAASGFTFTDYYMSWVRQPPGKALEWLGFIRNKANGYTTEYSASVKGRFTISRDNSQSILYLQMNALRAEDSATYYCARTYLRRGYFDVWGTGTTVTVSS VL: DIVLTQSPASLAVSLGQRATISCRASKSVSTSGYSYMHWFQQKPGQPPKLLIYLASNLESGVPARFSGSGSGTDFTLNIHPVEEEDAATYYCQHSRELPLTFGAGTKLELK", "NOT MET"),
    ("09A08 (antibody, IgG4, V domains shown) VH: QVQLVQSGAAVKKPGESLKISCKGSGYTFSNYWIGWVRQMPGKGLEWMGIIYPGDSDTRYSPSFQGQVTISADKSISTAYLQWSSLKASDTAMYYCARHIVGPPKSAFDIWGQGTMVTVSS VL: DIVMTQTPLSLPVTLGQPASISCSSSQGLQKRDGNTYLNWFQQRPGQSPRRLIYKVSNRDSGVPDRFSGSGSGTDFTLKISRVEAEDVGVYYCMQGTHWPWTFGQGTRVEIK", "NOT MET"),
    ("09A02 (antibody, IgG4, V domains shown) VH: EVQLVQSGGGLVKPGGSLRLSCAASGFTFRTAWMSWVRQAPGKGLEWVGRMKSKNDGGTTDYAAPVKGRFTISRDDSRDTVYLQMNSLKTEDTGVYYCATYAAGATVPWGQGTLVTVSS VL: DIVMTQTPLSAPVTLGQPASISCRSSRSLLQRNGYNYVDWYQQKAGNPPRLLIYLGSRRASGVPDRFSGSGSDKDFTLKISRVEADDVGFYFCKQSLQAPPTFGGGTKIEIT", "NOT MET"),
    ("2E12 (antibody, V domains shown, Mouse hybridoma mAb; only variable domains given) VH: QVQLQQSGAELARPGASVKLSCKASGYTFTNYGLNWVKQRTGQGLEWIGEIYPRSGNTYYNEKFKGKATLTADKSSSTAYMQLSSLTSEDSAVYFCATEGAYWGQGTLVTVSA VL: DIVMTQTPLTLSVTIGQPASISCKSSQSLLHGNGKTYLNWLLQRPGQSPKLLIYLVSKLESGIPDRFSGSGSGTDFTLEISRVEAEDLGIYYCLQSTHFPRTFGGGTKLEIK", "MET"),
    ("05A11 (antibody, IgG4, V domains shown) VH: EVKLLESGGGVVQPGRSLRLSCAASGFSFSAYGMHWVRQAPGKGLEWVSSISGSGDGTYYADSVKGRFTISRDNSKNTLYLQMNSLRAEDAAVYYCAKSVKGRGYFFDYWGQGTLVTVSS VL: DIVLTQSPSSLSASVGDRVTITCRASQSISSYLNWYQQKPGKAPKLLIYAASSLQSGVPSRFSGSGSGTDFTLSISNLQPEDFATYYCQQAYKFPRSFGGGTKVEFK", "NOT MET"),
    ("02G01 (antibody, IgG4, V domains shown) VH: EVQLVQSGAEVKKPGASVKVSCKASGYTFTSYGISWVRQAPGQGLEWMGWISAYNGNTNYAQKLQGRVTMTTDTSTSTAYMELRSLRSDDTAVYYCARVTRLPGGGYAFDIWGQGTMVTVSL VL: QSVLTQPPSASGTPGQRITISCSGSTSNIGNKHVYWYQQFPGAAPKLLIHNTNKRPSGVPDRFSGSKSGTSASLAISGLQSDDEADYYCAAWDGSLSAWVFGGGTKLTVL", "NOT MET"),
    ("01A11 (antibody, IgG4, V domains shown) VH: EVKLLESGGGLVQPGGSLRLSCATSGFSFSDYWMSWVRQAPGKGLEWVASIKKDGSEKYYVDSVKGRFTISRDNAKNSLYVQMNSLRAEDTAIYYCVVFGAWGPGTLVTVSS VL: DIVMTQTPLSLPVTLGQPASISCRSGRSLVYSDGNTYLNWFQQRPGQSPRRLIYKVSNRDSGVPDRFSGGGSGTDFTLKISRVEAEDVAIYYCMQGTHWPPTFGQGTKLEIK", "MET"),
]

Decide: binding normalized to PSGL-1 of 09B09 (antibody, IgG4, V domains shown) VH: EVKLLESGGGLVQPGGSLRLSCAASGITFSTYAMMWVRQAPGKGLEWVSGISGSGASRYYADSVKGRFTISRDNSKNMLYLQMNSLRAEDTAVYYCAKKVLGRRKQYFDDWGQGTLVTVSS VL: DIVMTQSPLSLPVTPGEPASISCRSSQSLLHSNGYNYLDWYLQRPGQSPQLLIYLGSHRASGVPDRFSGSGSGTEHTLKITTVAAEDVGVYYCMQALQSPPTFGQGTRLDIK strictly below 0.3? NOT MET

Decide: binding normalized to PSGL-1 of 10F01 (antibody, IgG4, V domains shown) VH: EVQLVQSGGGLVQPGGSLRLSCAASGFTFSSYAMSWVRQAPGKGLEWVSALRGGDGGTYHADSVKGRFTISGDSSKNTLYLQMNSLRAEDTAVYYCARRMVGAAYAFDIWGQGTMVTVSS VL: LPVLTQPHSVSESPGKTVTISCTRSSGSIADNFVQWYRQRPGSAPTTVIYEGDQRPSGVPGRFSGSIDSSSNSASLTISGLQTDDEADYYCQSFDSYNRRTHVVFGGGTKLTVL strictly below 0.3? MET
